assay.notes: Binding affinity to polyA-polyU (unknown origin) assessed as change in melting temperature at 0.1 compound to ds-polynucleotide ratio by spectrophotometric method
attribute.measured: ΔTm (°C)

Examples with their reported ΔTm follow.
CC(C)CNC(=N)c1ccc2nc(-c3ccc(OCCNc4ccnc5cc(Cl)ccc45)cc3)[nH]c2c1.Cl.Cl.Cl :: 1.24
Cl.Cl.Clc1ccc2c(Oc3ccc(-c4nc5ccc(C6=NCCN6)cc5[nH]4)cc3)ccnc2c1 :: -0.16
Cl.Cl.Cl.N=C(N)c1ccc2nc(-c3ccc(Oc4ccnc5cc(Cl)ccc45)cc3)[nH]c2c1 :: 2.98
Cl.Cl.Clc1ccc2c(Oc3ccc(C4=NCCN4)cc3)ccnc2c1 :: 1.18

P. Cl.Cl.Cl.N=C(NC1CCCC1)c1ccc2nc(-c3ccc(OCCNc4ccnc5cc(Cl)ccc45)cc3)[nH]c2c1
Q. Cl.Cl.Clc1ccc2c(Oc3ccc(C4=NCCCN4)cc3)ccnc2c1
R. CC(C)NC(=N)c1ccc(Oc2ccnc3cc(Cl)ccc23)cc1.Cl.Cl.Cl
S. CC(C)NC(=N)c1ccc2nc(-c3ccc(Oc4ccnc5cc(Cl)ccc45)cc3)[nH]c2c1.Cl.Cl.Cl
Sort (4 compounds) by ΔTm: min first. // respond by listing labels in the order requested
S, R, Q, P

---

assay.notes: Binding affinity to polyA-polyU (unknown origin) assessed as change in melting temperature at 0.5 compound to ds-polynucleotide ratio by spectrophotometric method
attribute.measured: ΔTm (°C)

Examples with their reported ΔTm follow.
Cl.Cl.Cl.N=C(N)c1ccc2nc(-c3ccc(Oc4ccnc5cc(Cl)ccc45)cc3)[nH]c2c1 :: 0.21
Cl.Cl.N=C(NC1CCCC1)c1ccc2nc(-c3ccc(Oc4ccnc5cc(Cl)ccc45)cc3)[nH]c2c1 :: 6.82
CC(C)CNC(=N)c1ccc(Oc2ccnc3cc(Cl)ccc23)cc1.Cl.Cl.Cl :: -0.44
Cl.Cl.Clc1ccc2c(Oc3ccc(-c4nc5ccc(C6=NCCCN6)cc5[nH]4)cc3)ccnc2c1 :: 1.82
Cl.Cl.Cl.N=C(NC1CCCC1)c1ccc(Oc2ccnc3cc(Cl)ccc23)cc1 :: 0.28

1. Cl.Cl.N=C(N)c1ccc(Oc2ccnc3cc(Cl)ccc23)cc1
2. CC(C)CNC(=N)c1ccc2nc(-c3ccc(Oc4ccnc5cc(Cl)ccc45)cc3)[nH]c2c1.Cl.Cl.Cl
// returns 1 or 2 , whichever has the lower ΔTm Give the label under which the chosen entry appears.
1

---

assay.notes: Growth inhibition of MDCK1 cells after 72 hrs by MTT assay
Set-up: species or system Canis lupus familiaris
measurement.context: dog
attribute.measured: GI50 at 72 h (µM)
Hi! Could you send only the number? It should be in µM, unit omitted.

Examples with their reported GI50 at 72 h follow.
Cl.Cl.Cl.N=C(N)c1ccc2nc(-c3ccc(OCCNc4ccnc5cc(Cl)ccc45)cc3)[nH]c2c1 :: 71.6
Cl.Cl.N=C(N)c1ccc(Oc2ccnc3cc(Cl)ccc23)cc1 :: 52.8
CC(C)CNC(=N)c1ccc2nc(-c3ccc(OCCNc4ccnc5cc(Cl)ccc45)cc3)[nH]c2c1.Cl.Cl.Cl :: 94.1
N#Cc1ccc2nc(-c3ccc(OCCNc4ccnc5cc(Cl)ccc45)cc3)[nH]c2c1 :: 22.1
Cl.Cl.Cl.N=C(NC1CCCC1)c1ccc(Oc2ccnc3cc(Cl)ccc23)cc1 :: 35

Read off the recorded GI50 at 72 h for Cl.Cl.Clc1ccc2c(Oc3ccc(C4=NCCCN4)cc3)ccnc2c1
37.5

These data points were gathered from ChEMBL document CHEMBL4130346.
